Source: ChEMBL document CHEMBL1255500

# Experimental protocol: Half life in healthy human at 400 mg/day, po administered for 21 days measured at day 21
# Type: ADME, organism-based
# Condition details: in vivo
Parameter measured: half-life (h)
Write the number in h without appending the unit.

stdin: Endpoint output: half-life of O=C(NN1C(=O)[C@@H]2[C@@H]3C=C[C@@H]([C@H]4C[C@@H]34)[C@@H]2C1=O)c1ccc(C(F)(F)F)cc1 . Value?
stdout: 19.8

---

# Experimental protocol: AUC in healthy human at 400 mg/day, po administered for 21 days measured at day 6
# Assay type: ADME, organism-based
# Condition details: plasma
Parameter measured: AUC at 504 h (ng·h/mL)
All answers are understood in ng·h/mL, so give the number only.

stdin: Entry O=C(NN1C(=O)[C@@H]2[C@@H]3C=C[C@@H]([C@H]4C[C@@H]34)[C@@H]2C1=O)c1ccc(C(F)(F)F)cc1 [TECOVIRIMAT] : reported AUC at 504 h = ?
stdout: 15400
